# key: entry, value: molar heat capacity at constant pressure
# TEST_DESCRIPTION: molar heat capacity at constant pressure
# PROTOCOL_CONDITIONS: 323.15 K; 20000 kPa; Liquid; Small sample (50 mg) DSC

{"COMPOUND": "CCCCCCn1cc[n+](C)c1.F[B-](F)(F)F [1-hexyl-3-methylimidazolium tetrafluoroborate]", "VALUE_UNIT": "J/K/mol", "molar heat capacity at constant pressure": 443.96}
{"COMPOUND": "CCn1cc[n+](C)c1.F[B-](F)(F)F [1-ethyl-3-methylimidazolium tetrafluoroborate]", "VALUE_UNIT": "J/K/mol", "molar heat capacity at constant pressure": 314.48}
{"COMPOUND": "CCCCn1cc[n+](C)c1.F[B-](F)(F)F [1-butyl-3-methylimidazolium tetrafluoroborate]", "VALUE_UNIT": "J/K/mol", "molar heat capacity at constant pressure": 377.54}
{"COMPOUND": "CCCCCCCC[n+]1ccn(C)c1.F[B-](F)(F)F [1-methyl-3-octylimidazolium tetrafluoroborate]", "VALUE_UNIT": "J/K/mol", "molar heat capacity at constant pressure": 514.42}

---

# TEST_DESCRIPTION: molar heat capacity at constant pressure
# PROTOCOL_CONDITIONS: 318.15 K; 40000 kPa; Liquid; Small sample (50 mg) DSC
# key: entry, value: molar heat capacity at constant pressure

{"COMPOUND": "CCn1cc[n+](C)c1.F[B-](F)(F)F [1-ethyl-3-methylimidazolium tetrafluoroborate]", "molar heat capacity at constant pressure, J/K/mol": 312.79}
{"COMPOUND": "CCCCCCn1cc[n+](C)c1.F[B-](F)(F)F [1-hexyl-3-methylimidazolium tetrafluoroborate]", "molar heat capacity at constant pressure, J/K/mol": 441.28}
{"COMPOUND": "CCCCCCCC[n+]1ccn(C)c1.F[B-](F)(F)F [1-methyl-3-octylimidazolium tetrafluoroborate]", "molar heat capacity at constant pressure, J/K/mol": 511.98}
{"COMPOUND": "CCCCn1cc[n+](C)c1.F[B-](F)(F)F [1-butyl-3-methylimidazolium tetrafluoroborate]", "molar heat capacity at constant pressure, J/K/mol": 375.37}

---

# TEST_DESCRIPTION: molar heat capacity at constant pressure
# PROTOCOL_CONDITIONS: 323.15 K; 14000 kPa; Liquid; Small sample (50 mg) DSC

{"COMPOUND": "CCn1cc[n+](C)c1.F[B-](F)(F)F [1-ethyl-3-methylimidazolium tetrafluoroborate]", "molar heat capacity at constant pressure / J/K/mol": 314.39}
{"COMPOUND": "CCCCn1cc[n+](C)c1.F[B-](F)(F)F [1-butyl-3-methylimidazolium tetrafluoroborate]", "molar heat capacity at constant pressure / J/K/mol": 377.47}
{"COMPOUND": "CCCCCCn1cc[n+](C)c1.F[B-](F)(F)F [1-hexyl-3-methylimidazolium tetrafluoroborate]", "molar heat capacity at constant pressure / J/K/mol": 443.88}
{"COMPOUND": "CCCCCCCC[n+]1ccn(C)c1.F[B-](F)(F)F [1-methyl-3-octylimidazolium tetrafluoroborate]", "molar heat capacity at constant pressure / J/K/mol": 514.42}

---

# TEST_DESCRIPTION: molar heat capacity at constant pressure
# PROTOCOL_CONDITIONS: 303.15 K; 30000 kPa; Liquid; Small sample (50 mg) DSC

{"COMPOUND": "CCn1cc[n+](C)c1.F[B-](F)(F)F [1-ethyl-3-methylimidazolium tetrafluoroborate]", "molar heat capacity at constant pressure / J/K/mol": 307.05}
{"COMPOUND": "CCCCCCn1cc[n+](C)c1.F[B-](F)(F)F [1-hexyl-3-methylimidazolium tetrafluoroborate]", "molar heat capacity at constant pressure / J/K/mol": 432.91}
{"COMPOUND": "CCCCCCCC[n+]1ccn(C)c1.F[B-](F)(F)F [1-methyl-3-octylimidazolium tetrafluoroborate]", "molar heat capacity at constant pressure / J/K/mol": 503.45}
{"COMPOUND": "CCCCn1cc[n+](C)c1.F[B-](F)(F)F [1-butyl-3-methylimidazolium tetrafluoroborate]", "molar heat capacity at constant pressure / J/K/mol": 368.53}
